From: PubChem BioAssay (NCI)

test system: NCI-H522 lung; test: NCI-60 one-dose screen, 48 h; conditions: 10 µM unless noted
This is part of a sample that, as a whole, favours compounds with a hit. Of some 83,000 tested, about 20% had one in any assay. Active and inactive are the calls of the source. How the source made its calls: active means growth percent below 10; inactive means the rest.
Respond only with the outcome that fits, drawn from active, inactive

Below, 2 molecules whose answers are already recorded.
- MOLECULE: "O=[N+]([O-])c1cc(F)c2cccnc2c1O"
  GROUP: "inactive"
- MOLECULE: "COc1ccc(C2CC(c3cccc(Nc4ccnc5cc(Cl)ccc45)c3)=NN2c2ccccc2)cc1 (stereo not given)"
  GROUP: "inactive"

[Q] What call does the record list for c1ccc(C2=Nc3ccccc3SC2)cc1 ?
[A] inactive

[Q] What call does the record list for CCOC(=O)c1c(NC(=O)c2ccccc2)sc2c(O)c(CN(CC)CC)ccc12 ?
[A] active

[Q] What call does the record list for OC(c1cc2cc(Cl)ccc2c2cc(C(F)(F)F)ccc12)C1CCCCN1 (stereo not given) ?
[A] active

[Q] What call does the record list for O=[N+]([O-])c1ccccc1CN1CCCCC1 ?
[A] inactive

[Q] What call does the record list for Cc1nc([C@H]2CC[C@H]3[C@@H]4CCC5=CC(=O)CC[C@]5(C)[C@H]4CC[C@]23C)cs1 ?
[A] inactive

[Q] What call does the record list for O=C(C(Br)C(Br)c1ccccc1)C(Br)C(Br)c1ccccc1 (stereo not given) ?
[A] active

[Q] What call does the record list for CN(C)c1ccc(N2Cc3ccccc3OC3=C2C(=O)c2c(O)ccc(O)c2C3=O)cn1 ?
[A] active

[Q] What call does the record list for Cc1cc(C)c(C#N)c(SCC(=O)c2sc3c(C#N)c(C)cc(C)[n+]3c2[O-])n1 ?
[A] active

[Q] What call does the record list for COc1cccc(Cn2c(-c3nonc3NC(C)=O)nc3ccccc32)c1 ?
[A] active

[Q] What call does the record list for CCc1ccc2c(c1)N(CCO)C1=C(C(=O)OC1)C2c1cccc(Cl)c1 (stereo not given) ?
[A] active
